test system: Brain; assay: Drug uptake albino mouse brain at 5 mg equivalent of oxazepam/kg, iv after 40 mins measured per gm of tissue by thin-layer chromatography; type: ADME, organism-based; details: in vivo
Assign class by Drug uptake: not lower than 10 nmol means t; lower than 10 nmol means f.

// below: answered compounds
CC(C)C(=O)OC1N=C(c2ccccc2)c2cc(Cl)ccc2N[14C]1=O (stereo unspecified) :: t
O=C(CCc1ccccc1)OC1N=C(c2ccccc2)c2cc(Cl)ccc2N[14C]1=O (stereo unspecified) :: t
CC(Cc1ccccc1)C(=O)OC1N=C(c2ccccc2)c2cc(Cl)ccc2N[14C]1=O (single isomer, unassigned; (-)) :: t

Does the reported Drug uptake for CC(Cc1ccccc1)C(=O)OC1N=C(c2ccccc2)c2cc(Cl)ccc2N[14C]1=O (stereo in doubt; [14C]-11) fall at or above the 10 nmol mark?
t

Is the recorded value of Drug uptake equal to or greater than 10 nmol for this compound? O=C(CCCc1ccccc1)OC1N=C(c2ccccc2)c2cc(Cl)ccc2N[14C]1=O (stereo unspecified)
f

* * *

tested on: Brain; test: Drug uptake albino mouse brain at 5 mg equivalent of oxazepam/kg, iv after 240 mins measured per gm of tissue by thin-layer chromatography; assay type: ADME, organism-based; details: in vivo, 4 h
Param label: returns yes when Drug uptake < 7 nmol, returns no otherwise, including exact equality.

I wonder whether CC(Cc1ccccc1)C(=O)OC1N=C(c2ccccc2)c2cc(Cl)ccc2N[14C]1=O (single isomer, unassigned; (-)) has Drug uptake below 7 nmol. Can you tell?
no

In plain terms, does CC(Cc1ccccc1)C(=O)OC1N=C(c2ccccc2)c2cc(Cl)ccc2N[14C]1=O (racemic) come in under 7 nmol for Drug uptake?
yes

Lab note: Drug uptake threshold 7 nmol. Does this molecule come in strictly under it? O=C(CCCc1ccccc1)OC1N=C(c2ccccc2)c2cc(Cl)ccc2N[14C]1=O (stereo unspecified)
no

Find out if reported Drug uptake for CC(C)C(=O)OC1N=C(c2ccccc2)c2cc(Cl)ccc2N[14C]1=O (stereo unspecified) is less than 7 nmol
yes

Just wondering, is Drug uptake of O=C(CCc1ccccc1)OC1N=C(c2ccccc2)c2cc(Cl)ccc2N[14C]1=O (stereo unspecified) below 7 nmol?
yes

* * *

assay: Drug metabolism in mouse liver microsomes assessed as rate of esterase-mediated compound hydrolysis measured per mg of protein by pH stat based titrimetric analysis; assay type: ADME
As shown below, each of these molecules has a reported log10 of Vmax value.
Please keep in mind that the values are log10 of Vmax expressed in nmol/min.

O=C(CCCc1ccccc1)OC1N=C(c2ccccc2)c2cc(Cl)ccc2NC1=O (configuration not stated) :: 0.18

Please look at this molecule and report its log10 of Vmax: CC(C)C(=O)OC1N=C(c2ccccc2)c2cc(Cl)ccc2NC1=O (configuration not stated)
2.12

Give recorded log10 of Vmax. CC(Cc1ccccc1)C(=O)OC1N=C(c2ccccc2)c2cc(Cl)ccc2NC1=O (single isomer, unassigned; (-))
0.41

* * *

Below: a set of entries, each annotated with reported ED50.
tested on: Mus musculus; test: Antimetrazol activity in iv dosed mouse assessed as inhibition of metrazol-induced tonic-extensor seizures administered 60 mins prior to metrazol challenge; format: functional; conditions: Mus musculus, iv; read-out: ED50
Give just the number in mg/kg; leave the unit off.

Consider the worked cases shown below.
CCC(CC)C(=O)OC1N=C(c2ccccc2)c2cc(Cl)ccc2NC1=O (stereo not drawn) :: 0.33
CC(=O)OC1N=C(c2ccccc2)c2cc(Cl)ccc2NC1=O (stereo not drawn) :: 0.33

Fill in ED50 for record CCCC(=O)OC1N=C(c2ccccc2)c2cc(Cl)ccc2NC1=O (stereo not drawn)
0.32

* * *

tested on: Brain; test: Drug uptake albino mouse brain at 5 mg equivalent of oxazepam/kg, iv after 5 mins measured per gm of tissue by thin-layer chromatography; assay type: ADME, organism-based; details: in vivo
Label scheme for Drug uptake: lower than 1 nmol is NOT MET, 1 nmol and above is MET.

Recorded results for 2 compounds are shown here.
CC(Cc1ccccc1)C(=O)OC1N=C(c2ccccc2)c2cc(Cl)ccc2N[14C]1=O (stereo in doubt; [14C]-11) :: MET
O=C(CCc1ccccc1)OC1N=C(c2ccccc2)c2cc(Cl)ccc2N[14C]1=O (stereo not given) :: MET

Check this compound for Drug uptake at or above 1 nmol: CC(C)C(=O)OC1N=C(c2ccccc2)c2cc(Cl)ccc2N[14C]1=O (stereo not given)
MET

Please tell me: is the compound CC(Cc1ccccc1)C(=O)OC1N=C(c2ccccc2)c2cc(Cl)ccc2N[14C]1=O (single isomer, unassigned; (-)) at or over 1 nmol in terms of Drug uptake?
MET

Answer whether Drug uptake of O=C(CCCc1ccccc1)OC1N=C(c2ccccc2)c2cc(Cl)ccc2N[14C]1=O (stereo not given) is greater than or equal to 1 nmol.
NOT MET

* * *

tested on: esterase; experiment: Drug metabolism in mouse liver microsomes assessed as rate of esterase-mediated compound hydrolysis by pH stat based titrimetric analysis; assay type: ADME; conditions: liver microsomes
Catalogue of Km values
Reply with the number and its unit after it.

Here are 2 molecules together with their reported answers.
O=C(CCCc1ccccc1)OC1N=C(c2ccccc2)c2cc(Cl)ccc2NC1=O (stereo not drawn) :: 9.5 µM
O=C(CCc1ccccc1)OC1N=C(c2ccccc2)c2cc(Cl)ccc2NC1=O (stereo not drawn) :: 9.7 µM

Moving on to another molecule below.
Provide one value: measured Km of O=C(Cc1ccccc1)OC1N=C(c2ccccc2)c2cc(Cl)ccc2NC1=O (stereo not drawn)
22.7 µM

* * *

Some compounds, each annotated with its measured Drug uptake.
test system: Brain; assay: Drug uptake albino mouse brain at 5 mg equivalent of oxazepam/kg, iv after 20 mins measured per gm of tissue by thin-layer chromatography; assay type: ADME, organism-based; conditions: in vivo
Write the numeric value and follow it with the unit.

// solved cases for Drug uptake follow
CC(Cc1ccccc1)C(=O)OC1N=C(c2ccccc2)c2cc(Cl)ccc2N[14C]1=O (single isomer, unassigned; (-)) :: 6.7 nmol
CC(C)C(=O)OC1N=C(c2ccccc2)c2cc(Cl)ccc2N[14C]1=O (stereo unspecified) :: 9.3 nmol
CC(Cc1ccccc1)C(=O)OC1N=C(c2ccccc2)c2cc(Cl)ccc2N[14C]1=O (racemic) :: 5.4 nmol
O=C(CCc1ccccc1)OC1N=C(c2ccccc2)c2cc(Cl)ccc2N[14C]1=O (stereo unspecified) :: 7.1 nmol
CC(Cc1ccccc1)C(=O)OC1N=C(c2ccccc2)c2cc(Cl)ccc2N[14C]1=O (stereo in doubt; [14C]-11) :: 7.7 nmol

// next entry
Tell me measured Drug uptake for O=C(CCCc1ccccc1)OC1N=C(c2ccccc2)c2cc(Cl)ccc2N[14C]1=O (stereo unspecified) please.
6.5 nmol

* * *

tested on: Mus musculus; assay: Antimetrazol activity in iv dosed mouse assessed as inhibition of metrazol-induced tonic-extensor seizures administered 60 mins prior to metrazol challenge; assay type: functional; details: Mus musculus, iv; read-out: ED50
Readout: ED50

Past entries and their recorded results:
O=C1Nc2ccc(Cl)cc2C(c2ccccc2)=NC1O (stereo not given) :: 0.39 mg/kg
CC(Cc1ccccc1)C(=O)OC1N=C(c2ccccc2)c2cc(Cl)ccc2NC1=O (racemic) :: 0.66 mg/kg
CC(C)C(=O)OC1N=C(c2ccccc2)c2cc(Cl)ccc2NC1=O (stereo not given) :: 0.33 mg/kg

Tell me ED50 reported for CCC(=O)OC1N=C(c2ccccc2)c2cc(Cl)ccc2NC1=O (stereo not given)
0.32 mg/kg

Please report ED50 for the following compound: O=C(CCc1ccccc1)OC1N=C(c2ccccc2)c2cc(Cl)ccc2NC1=O (stereo not given)
0.31 mg/kg

* * *

tested on: Mus musculus; test: Muscle relaxant activity in iv dosed mouse after 30 mins by rotarod test; type: ADME, organism-based; details: in vivo, 0.5 h
Recorded ED50 by entry
Return type: number; implicit unit mg/kg.

Check out these entries, answers already filled in.
CC(Cc1ccccc1)C(=O)OC1N=C(c2ccccc2)c2cc(Cl)ccc2NC1=O (single isomer, unassigned; (-)) :: 2.86
CCCC(=O)OC1N=C(c2ccccc2)c2cc(Cl)ccc2NC1=O (centres undefined) :: 2.64
CC(Cc1ccccc1)C(=O)OC1N=C(c2ccccc2)c2cc(Cl)ccc2NC1=O (stereo in doubt; 11) :: 2.67
CC(=O)OC1N=C(c2ccccc2)c2cc(Cl)ccc2NC1=O (centres undefined) :: 0.97
CCC(=O)OC1N=C(c2ccccc2)c2cc(Cl)ccc2NC1=O (centres undefined) :: 4.45

# context switch: different compound, same ED50
Please report the measured ED50 for CC(C)C(=O)OC1N=C(c2ccccc2)c2cc(Cl)ccc2NC1=O (centres undefined) tested on Mus musculus.
2.45

* * *

Overview of reported Drug uptake across a group of compounds:
system: Brain; test: Drug uptake albino mouse brain at 5 mg equivalent of oxazepam/kg, iv after 60 mins measured per gm of tissue by thin-layer chromatography; format: ADME, organism-based; settings: in vivo, 1 h
Numbers only; they are read as nmol.

Reference set (3 entries):
CC(Cc1ccccc1)C(=O)OC1N=C(c2ccccc2)c2cc(Cl)ccc2N[14C]1=O (stereo in doubt; [14C]-11) :: 12.8
O=C(CCc1ccccc1)OC1N=C(c2ccccc2)c2cc(Cl)ccc2N[14C]1=O (configuration not stated) :: 13.6
CC(Cc1ccccc1)C(=O)OC1N=C(c2ccccc2)c2cc(Cl)ccc2N[14C]1=O (racemic) :: 13

Next compound, please.
Recall and state the measured Drug uptake for CC(Cc1ccccc1)C(=O)OC1N=C(c2ccccc2)c2cc(Cl)ccc2N[14C]1=O (single isomer, unassigned; (-)) .
14.8
